- System: SF-539 CNS
- Method notes: NCI-60 one-dose screen, 48 h (100 = growth as untreated, 0 = no growth, -100 = all killed)
- Particulars: 10 µM unless noted
This is part of a sample that, as a whole, favours compounds with a hit. Of some 83,000 tested, about 20% had one in any assay. Activity calls are given as the source filed them. How the source made its calls: active means growth percent below 10; inactive means the rest.
Reported endpoint: growth

{"Chemical string": "Cc1ncn(-c2ccc(/C=N/Nc3ccnc4cc(Cl)ccc34)cc2)c1C", "Reported result": "-60.7% (active)"}

// growth lookup, molecule = Cc1ccc2c(n1)C(=O)C(Cl)=C(Nc1cccc(C(F)(F)F)c1)C2=O , result: 106% (inactive)

Cc1[nH]c(C(=O)Nc2ccccc2OCc2cccc(C(=O)NCCN)c2)cc1Cl has a reported growth of 97.2% (inactive)

Record CN(C)c1cccc2c(S(=O)(=O)Nc3cccc(-c4csc(NC(=O)CCCCCN5CCN(CCO)CC5)n4)c3)cccc12 , field growth: 54.7% (inactive)

Record summary for N#Cc1c(-c2ccc(Br)cc2)cc(-c2c[nH]c3ccccc23)nc1N : reported growth = 43% (inactive)

Lookup result for CCNCCOc1ccc(/C(=C(/CC)c2ccc(Cl)cc2)c2ccc(OCCCN(C)C)cc2)cc1 ; measured growth: -93.9% (active)

The recorded growth for entry N#Cc1c(-c2cccs2)cc(-c2cnccn2)nc1SCC(=O)N/N=C/c1ccc(Cl)cc1 equals 100% (inactive)

growth measured on O=C(CSc1nc2ccccc2c(=O)n1-c1ccc(Cl)cc1)N/N=C/c1ccc(Oc2ccc(Cl)cc2)cc1 = 69.7% (inactive)

For record CCOC(=O)Nc1ccc2c(ccn2C(=O)c2cccc(F)c2)c1 the listed growth is 0.0722% (active)

Measured growth, Cn1cc(-c2cc3ncnc(Nc4ccc(NC(=O)Nc5cc(C(C)(C)C)on5)cc4)c3s2)cn1 : -47.8% (active)

Looking up O=C1C(SCc2ccccc2)=C(Cl)CN1c1ccccc1 , I found its growth recorded as 95% (inactive)

growth reported for this molecule O=C(Nc1ccccc1)Nc1nc2ccc([N+](=O)[O-])cc2[nH]1 : 61.7% (inactive)

# molecule Brc1ccc(-c2cc(-c3ccc4c(c3)OC=CO4)n[nH]2)s1 ; its growth = 85.2% (inactive)

Record C#C[C@]1(O)CC[C@H]2[C@@H]3CC=C4c5sc(Nc6ccc(C)cn6)nc5CC[C@]4(C)[C@H]3CC[C@@]21C , field growth: -66.8% (active)

====

- Tested on: SK-OV-3 ovarian
- Method notes: NCI-60 one-dose screen, 48 h (100 = growth as untreated, 0 = no growth, -100 = all killed)
- Particulars: 10 µM unless noted
This is part of a sample that, as a whole, favours compounds with a hit. Of some 83,000 tested, about 20% had one in any assay.
// NB: equality with 50% counts as no (0); only growth strictly below is yes (1)

Ask: Dear colleague, could you confirm whether growth of O=C1Nc2ccccc2/C1=N\c1nnc(-c2ccccc2)o1 falls below 50%? Thanks.
Reply: no (0)

Ask: is_below(growth, 50%) for Nc1ncc(-c2ccc3ncnc(NCc4ccccc4)c3c2)cn1 ?
Reply: yes (1)

Ask: A record lists N#Cc1cccc(-c2cc(-c3ccc4c(c3)OCCO4)[nH]n2)c1 . Is its growth below 50%?
Reply: no (0)

====

- Tested on: NCI-H23 lung
- Method notes: NCI-60 one-dose screen, 48 h
- Particulars: 10 µM unless noted
Compounds without any hit were thinned out: in the full panel of roughly 83,000, 20% have a hit. Activity calls are given as the source filed them. Rule for the calls: active = growth percent below 10; inactive = the rest.
Output constraint: value belongs to T = active, F = inactive

Some entries whose results are on file:
{"Chemical string": "NC(=O)c1c(NC(=O)c2ccc(C(F)(F)F)cc2)sc2c1CCC(=O)C2", "Target or test system": "NCI-H23 lung", "Category label": "T"}
{"Chemical string": "CC1(C)CC[C@]23CC[C@]4(C)[C@H](CC[C@@H]5[C@@]6(C)CC[C@H](NCO)C(C)(C)[C@@H]6CC[C@]54C)[C@H]2[C@H]1OC3", "Target or test system": "NCI-H23 lung", "Category label": "F"}
{"Chemical string": "CN1CCN(c2ccc(Nc3nc(NCCNC(=O)c4ccccc4)c4sccc4n3)cc2)CC1", "Target or test system": "NCI-H23 lung", "Category label": "F"}
{"Chemical string": "Cc1ccccc1NC(=O)Nc1nc2ccc([N+](=O)[O-])cc2s1", "Target or test system": "NCI-H23 lung", "Category label": "T"}

Ask: // param item: CC(=O)/C(N=Nc1ccc2oc(=O)ccc2c1)=C(\C)O ; yields the recorded call
Reply: F

Ask: In this assay, the call recorded for N#C/C(=C\c1ccc(-c2ccc(Cl)c(Cl)c2)o1)C(=O)Nc1ncc(Cc2ccc(Cl)cc2)s1 was what?
Reply: F

Ask: What did the test return for Cc1cc(Br)ccc1-n1cc(C#N)c(N)c1C(=O)c1ccc(Br)cc1 ?
Reply: F

Ask: Could you kindly confirm the outcome this assay logged for Cc1[nH]c(C(=O)Nc2ccc(S(=O)(=O)N3CCCCC3)cc2OCCOCCOCCOCCOCCOCCOCCOCCOCCOc2cc(S(=O)(=O)N3CCCCC3)ccc2NC(=O)c2[nH]c(C)c3c2CCCCC3=O)c2c1C(=O)CCCC2 ?
Reply: F

Ask: Please indicate how the test categorized CCCCCCNC(=O)Oc1ccc(/C(=C(/C)c2ccc(OC)cc2)c2ccc(OCCN3CCCCCC3)cc2)cc1 .
Reply: F

Ask: What is the recorded call for this compound in the test? CCOC(=O)C(=O)Nc1ccc2c(ccn2C(=O)c2cccc(F)c2)c1
Reply: F

Ask: Returns: the outcome recorded for CC1=C(C)C(=O)C(Nc2cccc(C(=O)OC(C)(C)C)c2)=CC1=O in this assay.
Reply: F

Ask: Hi team, can someone confirm the assay call for CC(=O)N(O)CCCCCNC(=O)CCC(=O)N(O)CCCCCNC(=O)CCC(=O)N(O)CCCCCN(CCCCCCCCCC[P+](c1ccccc1)(c1ccccc1)c1ccccc1)CCCCCCCCCC[P+](c1ccccc1)(c1ccccc1)c1ccccc1 ?
Reply: T

Ask: Would you mind telling me which call this test gave Cc1csc(/N=C(N)/N=C(\N)c2cccc(C#N)c2)n1 ?
Reply: F

Ask: Tell me the assay call for CCCCc1nc2c(N)nc3ccccc3c2n1Cc1ccc(OC)cc1 please.
Reply: F

Ask: Please share the test call associated with CC(C)NC(=O)c1cc(-c2ccc(NC(=O)Nc3ccc(F)cc3)cc2)nc2cccnc12 .
Reply: F

Ask: Dear colleague, could you share the recorded outcome for O=C(Nc1ccc(Cl)c(C(F)(F)F)c1)Nc1ccc2oc(=O)ccc2c1 when you have a moment?
Reply: T

Ask: In this assay, the call recorded for C#CCn1cc(/C=N/Nc2nc(-c3ccc(Br)cc3)cs2)c2ccccc21 was what?
Reply: F

Ask: What was the test verdict on Cc1csc(/N=C(N)/N=C(\N)c2cccc(Br)c2)n1 ?
Reply: F

====

- Test system: K-562 leukemia
- Method notes: NCI-60 one-dose screen, 48 h
- Particulars: 10 µM unless noted
This is part of a sample that, as a whole, favours compounds with a hit. Of some 83,000 tested, about 20% had one in any assay. Calls of active or inactive are those of the source. Rule for the calls: active = growth percent below 10; inactive = the rest.
API: response.call in active, inactive

Take a look at these entries with their results.
{"Compound": "CCCCc1nc2c(N)nc3ccccc3c2n1Cc1ccc(OC)cc1", "Category label": "inactive"}
{"Compound": "N#Cc1c(-c2ccc(F)cc2)cc(-c2c[nH]c3ccccc23)nc1-c1c[nH]c2ccccc12", "Category label": "inactive"}
{"Compound": "COc1cccc(N2CCN(C3=C(Cl)C(=O)c4ncccc4C3=O)CC2)c1", "Category label": "active"}
{"Compound": "COc1ccc(/C=N/NC(=O)c2c(N)nn(C)c2Nc2ccccc2)cc1Oc1ccccc1", "Category label": "inactive"}
{"Compound": "CCCCN1C(=O)/C(=c2\\sc3n(c2=O)C2C(NN=3)N(CC)C(=O)N2CC)c2cc(C)ccc21 (stereo unspecified)", "Category label": "inactive"}

Ask: Tell me the assay call for NS(=O)(=O)c1ccc(CCn2c(-c3ccc(C(=O)O)cc3)nc(-c3ccccc3)c2-c2ccccc2)cc1 please.
Reply: inactive

Ask: Record lookup: outcome of this test for O=C1c2ccccc2C23C(=C(c4cncnc4)c4ccccc42)CCCN13 (stereo unspecified) ?
Reply: inactive

Ask: // param item: CCN(CC)S(=O)(=O)c1ccc(-c2nc(C(Cl)Cl)nc3cc(-c4ccc(F)cc4)nn23)cc1 ; yields the recorded call
Reply: inactive

Ask: How was Cc1cc2nc3c4cc(C#N)ccc4n(CCN(C)C)c3nc2cc1C classified in this test?
Reply: active

Ask: Give the logged outcome of this assay for the following compound: COc1ccccc1/C=C/C(=O)c1nnn(-c2ccc(F)cc2)c1C
Reply: active

Ask: Call for entry CN1CCN(Cc2ccc(NC(=O)c3cncc(C#Cc4cnc(N)nc4)c3)cc2C(F)(F)F)CC1 :
Reply: active

Ask: What call does the record list for O=c1c2cc(-c3ccc(F)cc3F)ccc2n(O)c(=O)n1-c1cccc(C(F)(F)F)c1 ?
Reply: active

Ask: Outcome? CC1=Cc2ccccc2OC12C=Cc1ccccc1O2 (stereo unspecified)
Reply: inactive

The values you see were collected from PubChem BioAssay (NCI).
